assayText: Pharmacokinetics of rhodomyrtone in rats after a single oral dose (HPLC-UV plasma analysis, non-compartment model)
Assay type: in vivo, Sprague Dawley rats
studyConditions: male, Sprague Dawley, rat, plasma, po, 100 mg/kg, rat, single oral dose 100 mg/kg, n = 12, mean ± SD; read-out: Tmax
outcomeMeasure: Tmax (h)

[
  {
    "compound": "CC(C)CC(=O)c1c(O)cc2c(c1O)[C@@H](CC(C)C)C1=C(O2)C(C)(C)C(=O)C(C)(C)C1=O [rhodomyrtone, Rhodomyrtone]",
    "reportedValue": 2
  }
]

###

assayText: Pharmacokinetics of rhodomyrtone in rats after a single oral dose (HPLC-UV plasma analysis, non-compartment model)
Assay type: in vivo, Sprague Dawley rats
studyConditions: male, Sprague-Dawley, plasma; rat, single oral dose 100 mg/kg, n = 12; read-out: λz (converted)

[
  {
    "structureString": "CC(C)CC(=O)c1c(O)cc2c(c1O)[C@@H](CC(C)C)C1=C(O2)C(C)(C)C(=O)C(C)(C)C1=O",
    "k el / s⁻¹": "8.33e-05"
  }
]

###

assayText: Pharmacokinetics of rhodomyrtone in rats after a single oral dose (HPLC-UV plasma analysis, non-compartment model)
Format: in vivo, Sprague Dawley rats
studyConditions: male, Sprague Dawley, rat, plasma, po, 100 mg/kg, rat, oral, 50 and 100 mg/kg doses (not significantly different); read-out: apparent total volume of distribution (Vz/F)
outcomeMeasure: Vd/F

[
  {
    "structureString": "CC(C)CC(=O)c1c(O)cc2c(c1O)[C@@H](CC(C)C)C1=C(O2)C(C)(C)C(=O)C(C)(C)C1=O",
    "outcomeMeasure": "Vd/F",
    "reportedValue": "~50 L/kg"
  }
]

###

assayText: Pharmacokinetics of rhodomyrtone in rats after a single oral dose (HPLC-UV plasma analysis, non-compartment model)
Type: in vivo, Sprague Dawley rats
studyConditions: male, Sprague-Dawley, plasma; rat, single oral dose 100 mg/kg, n = 12; read-out: AUC0–8

[
  {
    "compound": "CC(C)CC(=O)c1c(O)cc2c(c1O)[C@@H](CC(C)C)C1=C(O2)C(C)(C)C(=O)C(C)(C)C1=O [rhodomyrtone, Rhodomyrtone]",
    "AUC(0-t), ng·h/mL": 6650
  }
]

###

assayText: Pharmacokinetics of rhodomyrtone in rats after a single oral dose (HPLC-UV plasma analysis, non-compartment model)
Format: in vivo, Sprague Dawley rats
studyConditions: male, Sprague Dawley; rat plasma, single oral dose 100 mg/kg, n = 12
outcomeMeasure: Cmax (ng/mL)

[
  {
    "compound": "CC(C)CC(=O)c1c(O)cc2c(c1O)[C@@H](CC(C)C)C1=C(O2)C(C)(C)C(=O)C(C)(C)C1=O [rhodomyrtone, Rhodomyrtone]",
    "outcomeMeasure": "Cmax",
    "reportedValue": 1310
  }
]

###

assayText: Pharmacokinetics of rhodomyrtone in rats after a single oral dose (HPLC-UV plasma analysis, non-compartment model)
Type: in vivo, Sprague Dawley rats
studyConditions: male, Sprague Dawley, plasma; rat, single oral dose 50 mg/kg, n = 12; read-out: t1/2 (converted)
outcomeMeasure: half-life (h)

[
  {
    "structureString": "CC(C)CC(=O)c1c(O)cc2c(c1O)[C@@H](CC(C)C)C1=C(O2)C(C)(C)C(=O)C(C)(C)C1=O",
    "unitDescriptor": "h",
    "reportedValue": 2.2
  }
]

###

assayText: Pharmacokinetics of rhodomyrtone in rats after a single oral dose (HPLC-UV plasma analysis, non-compartment model)
Assay type: in vivo, Sprague Dawley rats
studyConditions: male, Sprague-Dawley, plasma; rat, single oral dose 50 mg/kg, n = 12; read-out: λz (converted)
outcomeMeasure: k el (s⁻¹)

[
  {
    "structureString": "CC(C)CC(=O)c1c(O)cc2c(c1O)[C@@H](CC(C)C)C1=C(O2)C(C)(C)C(=O)C(C)(C)C1=O",
    "outcomeMeasure": "k el",
    "unitDescriptor": "s⁻¹",
    "reportedValue": 0.000139
  }
]
